Numbers sourced from a melting point compilation (Tetko et al.; mined from patent text by program, amines drawn as free bases though some values may be those of a salt).

# melting point annotations

Some solved cases for reference:
O=C(O)CCCCCSc1ccc(O)cc1 | 92 to 94 °C
Cc1oc(-c2ccco2)nc1COc1ccc(CO)cc1Br | 141 to 142 °C
COc1cc(C(=O)Nc2cc(F)ccc2C(=O)O)cc(OC)c1OC | 232 to 233 °C
CCOC(=O)C1(C(=O)OCC)CCNC(=O)C1CCO (stereo unspecified) | 120 to 121 °C
Cc1cc(OCc2ccccc2)cc(C)c1CC(=O)O | 149 to 150 °C

Now consider the entry below.
Entry under test: CCCNc1nc(N)nc(-c2ccccc2)c1-c1ccc(=O)n(C(C)C)n1 . Its melting point was 209 to 212 °C

----------
reported.endpoint: melting point

Some solved cases for reference:
C[C@H]1Oc2ccc(F)cc2NC(=O)[C@H]1N | 173 to 177 °C
CCCSc1nc[nH]n1 | 53 to 56 °C
C=CCC(=O)S/C=C\C(=O)NCCCCCCCC | 60 to 62 °C
O=C(O)C1=Cc2ccc(Cl)cc2SC1C(F)(F)F (stereo unspecified) | 226 to 227 °C
Cc1cn(-c2cccc([N+](=O)[O-])c2)cn1 | 119 to 120 °C
N#Cc1ccnc(-c2nc(=O)c3ccccc3s2)c1 | 283 to 284 °C
N#CCCC(CCC(=O)O)(c1ccccc1)c1ccccc1 | 119 to 120 °C
Cc1nn2ccccc2c1C1=NNC(=O)CC1C (stereo unspecified) | 146 to 147 °C

Entry under test: C[C@H]1[C@@H](O)C(F)(F)C(=O)N1c1ccc(C#N)c(C(F)(F)F)c1 . Its melting point was 128 to 131 °C

Entry under test: CCCCc1nc2c(N)nc3cccnc3c2n1CCNC(=O)c1cc(C(C)(C)C)c(O)c(C(C)(C)C)c1 . Its melting point was 248 to 250 °C

Entry under test: O=C(C=Cc1cccnc1)NCCCCC1CCN(C(=O)N(c2ccccc2)c2ccccc2)CC1 . Its melting point was 132 to 134 °C

----------
reported.endpoint: melting point

Some solved cases for reference:
CC1(Oc2ccc(CC(=O)c3ccc4c(c3)CCC4)cc2)CCCC1C(=O)O (configuration not stated) | 191 to 193 °C
N[C@@H]1C(=O)N(S(=O)(=O)O)[C@H]1C1CCCCC1 (relative stereo) | 135 to 138 °C
Cc1ccc(S(=O)(=O)NC(=O)Nc2ccc(Br)c(C)c2)cc1 | 178 to 180 °C

Entry under test: N#CC=C1CCN(c2ccc(N3C[C@H](CNC(=O)C(F)F)OC3=O)cc2F)CC1 . Its melting point was 162 to 164 °C

Entry under test: CN1CC(CCN(C)c2ccccc2)N(C)c2nc3ccccc3n2C1=O (configuration not stated) . Its melting point was 74 to 90 °C

Entry under test: CC(C)(C)c1cc(C(=O)NN)cc(C(C)(C)C)c1O . Its melting point was 187 to 188 °C

Entry under test: Cc1nc(NC(=O)c2cnn3c(C(F)(F)F)cc(-c4ccc(C(F)(F)F)cc4)nc23)sc1S(=O)(=O)N1CCN(C)CC1 . Its melting point was 273 °C

Entry under test: CC(C)CCc1cc2nnc(-c3ccccc3F)n2nc1OCc1ncnn1C . Its melting point was 103 to 105 °C

Entry under test: C=CCSc1ccc(OCCO)nn1 . Its melting point was 38 to 40 °C

Entry under test: CN(C)C(=O)c1cncn1C . Its melting point was 46 to 47 °C

Entry under test: CCCN1N=C2C(=Cc3ccc(OC)cc3)CSCC2C1c1ccc(OC)cc1 (configuration not stated) . Its melting point was 150 to 152 °C

Entry under test: Cc1cc(-c2cc(C(F)(F)F)n3nccc3n2)ccc1C(F)(F)F . Its melting point was 87 °C

Entry under test: O=C(O)CCCCCOc1c(Cl)cc(NC(=O)NC(=O)c2ccccc2Cl)cc1Cl . Its melting point was 171 to 173 °C

Entry under test: CS(=O)(=O)c1ccc(-c2cc(CO)nn2C2CCCCC2)cc1 . Its melting point was 148 °C

Entry under test: COc1ccc(N2CCOCC2)c2sc(-c3nc4ccccc4n3C)nc12 . Its melting point was 283 to 285 °C

Entry under test: Cc1c(NC(=O)CC(C)(C)C)cc2c(c1C)OC(C)(C)C2c1cccs1 (configuration not stated) . Its melting point was 137 to 138 °C

Entry under test: COc1ccc2c(c1)c(=O)c(CO)cn2C . Its melting point was 194 to 197 °C

Entry under test: COc1ccc(S(=O)C(C(=O)NO)C(C)C)cc1 (configuration not stated) . Its melting point was 163 °C

Entry under test: CCc1noc(-c2ncn(-c3cccc(Cl)c3)c2COC)n1 . Its melting point was 125 to 126 °C

Entry under test: CN(Cc1ccccc1)C(=O)/C=C/c1cc(Cl)cnc1N . Its melting point was 106 to 109 °C

Entry under test: CS(=O)(=O)c1ccc(-c2cnn(-c3ccc(F)c(F)c3)c(=O)c2OCCC2CCCC2)cc1 . Its melting point was 100 to 101 °C

Entry under test: [N-]=[N+]=Nc1ccc(CBr)cc1Cl . Its melting point was 75 to 77 °C
